meta.source: patent EP4635500A1

Tested on: Enterobacterales
TEST DESCRIPTION: MIC, broth microdilution, CDC/FDA Antibiotic Resistance Isolate Bank (Example 7, Tables 8, 11, 12)
Format: cell-based
PARTICULARS: Escherichia coli, KUB No. 5634, AR Bank # 137; read-out: MIC
Give MIC for every item shown.
Give bare numbers, in mg/L.

1. NCC[C@H](O)C(=O)N[C@@H]1C[C@H](N)[C@@H](O[C@H]2O[C@H](CN)[C@@H](O)[C@H](O)[C@H]2O)[C@H](O)[C@H]1O[C@H]1O[C@H](CO)[C@@H](O)[C@H](N)[C@H]1O | 16
2. C[C@H]1COc2c(N3CCN(C)CC3)c(F)cc3c(=O)c(C(=O)O)cn1c23 | 64

Any idea what MIC came out for CC(C)(O/N=C(\C(=O)N[C@@H]1C(=O)N2C(C(=O)[O-])=C(C[N+]3(CCNC(=O)c4ccc(O)c(O)c4Cl)CCCC3)CS[C@H]12)c1csc(N)n1)C(=O)O on Enterobacterales?
2
